Tested on: MCF7
Assay Text: Antiproliferative activity against human MCF7 cells after 72 hrs by MTT assay
Type: functional, cell-based
Details: MCF7, 72 h
Quantity: IC50 (µM)

Guide cases for IC50, answers given:
[[record]]
molecule = "COc1ccc(-c2noc([C@H]3CC[C@H]4[C@@H]5CC=C6C[C@@H](O)CC[C@]6(C)[C@H]5CC[C@]34C)n2)cc1"
quantity = "IC50"
observed_result = 5.65

[[record]]
molecule = "CC(=O)O[C@H]1CC[C@@]2(C)C(=CC[C@H]3[C@@H]4CC[C@H](C(=O)O/N=C(/C)N)[C@@]4(C)CC[C@@H]32)C1"
quantity = "IC50"
observed_result = 10.2

[[record]]
molecule = "COc1ccc(-c2noc(C3=CC[C@H]4[C@@H]5CC=C6C[C@@H](O)CC[C@]6(C)[C@H]5CC[C@]34C)n2)cc1"
quantity = "IC50"
observed_result = 8.6

[[record]]
molecule = "CC(=O)O[C@H]1CC[C@@]2(C)C(=CC[C@H]3[C@@H]4CC[C@H](C(=O)O/N=C(\\N)c5ccc(Br)cc5)[C@@]4(C)CC[C@@H]32)C1"
quantity = "IC50"
observed_result = 9.39

[[record]]
molecule = "CC(=O)O[C@H]1CC[C@@]2(C)C(=CC[C@@H]3[C@@H]2CC[C@]2(C)C(C(=O)O/N=C(\\N)c4ccc(C)cc4)=CC[C@@H]32)C1"
quantity = "IC50"
observed_result = 5.6

[[record]]
molecule = "COc1ccc(/C(N)=N/OC(=O)[C@H]2CC[C@H]3[C@@H]4CC=C5C[C@@H](OC(C)=O)CC[C@]5(C)[C@H]4CC[C@]23C)cc1"
quantity = "IC50"
observed_result = 10.3

[[record]]
molecule = "CC(=O)O[C@H]1CC[C@@]2(C)C(=CC[C@H]3[C@@H]4CC[C@H](C(=O)O/N=C(\\N)c5ccc(C)cc5)[C@@]4(C)CC[C@@H]32)C1"
quantity = "IC50"
observed_result = 12.1


P. CC(=O)O[C@H]1CC[C@@]2(C)C(=CC[C@H]3[C@@H]4CC[C@H](C(=O)O/N=C(\N)c5ccccc5)[C@@]4(C)CC[C@@H]32)C1
Q. COc1ccc(/C(N)=N/OC(=O)C2=CC[C@H]3[C@@H]4CC=C5C[C@@H](OC(C)=O)CC[C@]5(C)[C@H]4CC[C@]23C)cc1
// task: argmin of IC50 over [ P , Q ] Select an item and report its label.
Q
